Test system: NCI-H522
Experiment: NCI tumour cell line growth inhibition, 48 h
Activity calls are given as the source filed them. Cut-off read from the data, not from the text of the source: active = GI50 up to about 1.1 µM and inactive = higher.
Respond with a class label; see active, inactive

>>> print(df.to_string())
                                  compound     label
0  CC(C)(C)c1ccc(NS(=O)(=O)c2ccc(N)cc2)cc1  inactive

Task: Returns: the outcome recorded for COC(=O)C(Cc1ccc2c(c1)CCCC2)Cc1cc2c(cc1C(O)OC)CCC2 (configuration not stated) in this assay.
Result: inactive

Task: Check c1ccc(-c2c[nH]c(SC(c3ccccc3)c3ccccc3)n2)cc1 too.
Result: inactive

Task: Check O=C(N/C(=C\c1ccc(/C=C(\NC(=O)c2ccccc2)c2nc3c(O)nc(S)nc3[nH]2)cc1)c1nc2c(O)nc(S)nc2[nH]1)c1ccccc1 too.
Result: inactive

Task: Check COC1=C(C)C(=O)c2c(c(COC(N)=O)c3n2CC2C3N2C)C1=O (configuration not stated) too.
Result: active

Task: Check CC(=O)OCCCOCn1c(Cc2ccccc2)c(C)c(=O)[nH]c1=O too.
Result: inactive

Task: Check CN(C)c1nnnn1-c1c(N)n(C)c(=O)n(C)c1=O too.
Result: inactive

----------
Endpoint: GI50. System: HCT-15. Items follow.

// worked examples, GI50 included
In [3]: df
Out[3]:
                                   compound  system_tested  measurement
0  O=Cc1c(Cn2ccnc2)c2cc([N+](=O)[O-])ccc2n1Cc1ccccc1         HCT-15     > 100 µM
1                        Cn1ncnc1CCc1ccccc1         HCT-15     > 100 µM

Task: // GI50 lookup, key: CC(=O)Nc1cccc(N2C(=O)/C(=C\c3cccc(Oc4ccccc4)c3)SC2c2ccccc2)c1 (stereo not given)
Result: > 100 µM

Task: Check COP(=N[Si](C)(C)C)(OC)OC too.
Result: > 100 µM

Task: Check C#CC(O)/C=C/C(O)CCCC(O)CC#CC(O)C#CCCCCC(O)/C=C/CCCCCC(=O)CCCCCCCCCCCCCC(O)C(O)C#CC(=O)O (stereo not given) too.
Result: > 25 µM

Task: Check CO/C(=N\N=C\c1ccc(C(F)(F)F)cc1)c1ccncc1 too.
Result: > 10 µM

Task: Check Cc1c(Cl)nc(Nc2nc3ccccc3[nH]2)nc1Cl too.
Result: > 100 µM

Task: Check Oc1c(OCc2nnc(CCCCCCCCc3nnc(COc4ccc5ccccc5c4O)o3)o2)ccc2ccccc12 too.
Result: > 100 µM

Task: Check C=C(Br)C(C)(Cl)CCC(Br)C(C)(C)Br (stereo not given) too.
Result: 67 µM

Task: Check CC[C@@]1(O)C[C@H](OC2CC(N(C)C)C(O)C(C)O2)c2c(cc3c(c2O)C(=O)c2c(O)ccc(O)c2C3=O)[C@H]1C(=O)OC (stereo not given in full) too.
Result: 0.0452 µM

----------
Test system: ACHN
Experiment: NCI tumour cell line growth inhibition, 48 h
Active and inactive are the calls of the source. Rule as the data show it: active = GI50 up to about 1.1 µM and inactive = higher.
Quick list: GI50 per entry.

                  compound  reported_endpoint         measurement
0  NC(N)=NCc1ccc2c(c1)OCO2               GI50  65.5 µM (inactive)

Task: Missing value: GI50, ACHN, entry Cc1cc(C)c2c(n1)S(=O)(=O)N(CCCN1CCN(c3cccc(Cl)c3)CC1)C(C(=O)c1ccc(Br)cc1)=C2O . Fill in?
Result: 27.3 µM (inactive)

Task: Check Cc1ccc2c(/C=C/c3ccc(N(C)C)cc3)ccc(C(C)C)cc1-2 too.
Result: > 100 µM (inactive)

Task: Check O=C1/C(=C\c2cccc(Oc3ccccc3)c2)SC(c2ccccc2)N1Cc1ccccc1 (stereo not given) too.
Result: 52.8 µM (inactive)

Task: Check Cc1ccc(Nc2nnc3n2S(=O)(=O)c2cc(C)c(Cl)cc2S3)cc1 too.
Result: 27.9 µM (inactive)

Task: Check CC(=O)OC1COC(n2c(-c3ccc(Cl)cc3)cc(-c3ccccc3)c(C#N)c2=S)C(OC(C)=O)C1OC(C)=O (stereo not given) too.
Result: 17.5 µM (inactive)

Task: Check Cc1cccc(NC(=O)CC2C(=O)Nc3ccccc3S2(=O)=O)c1C (stereo not given) too.
Result: 23.2 µM (inactive)

Task: Check OC1CCSc2ccccc21 (stereo not given) too.
Result: > 100 µM (inactive)

Task: Check O=c1[nH]c2ccc(CC(=S)N3CCN(c4ccccc4)CC3)cc2o1 too.
Result: > 100 µM (inactive)

Task: Check Cn1c2ccccc2n2c(=O)c(-c3ccc(Cl)cc3)nnc12 too.
Result: > 100 µM (inactive)

----------
Quick list: GI50 per entry.
Test system: SK-MEL-5
Experiment: NCI tumour cell line growth inhibition, 48 h
Activity calls are given as the source filed them. Cut-off read from the data, not from the text of the source: active = GI50 up to about 1.1 µM and inactive = higher. Square brackets hold non-standard residues; d marks the D form. Peptide text beside a SMILES is read from it. ξ: configuration not given here. ξ2Thi = NC(Cc1cccs1)C(=O)O; ξR = N=C(N)NCCCC(N)C(=O)O; ξI = CCC(C)C(N)C(=O)O; ξL = CC(C)CC(N)C(=O)O; ξK = NCCCCC(N)C(=O)O; ξT = CC(O)C(N)C(=O)O; ξA = CC(N)C(=O)O

Compound	Measurement
O=C(Nc1cccc(C(F)(F)F)c1)C(=O)C1NC(=S)NC1=O (configuration not stated)	> 100 µM (inactive)
N#Cc1c(-c2ccccc2)[nH]c2ccccc2c1=O	66.7 µM (inactive)
CNC(=O)N1CN(c2ccccc2)C2(CCN(CCCC3(c4ccc(F)cc4)OCCO3)CC2)C1=O	> 100 µM (inactive)
N#C[BH2-][n+]1ccc(C(=O)NNCC(F)(F)F)cc1	> 100 µM (inactive)
O=[N+]([O-])c1ccccc1/C=N/C12CC3CC(CC(C3)C1)C2	61.4 µM (inactive)
COc1cc(Br)c(/C=N\c2cccc3ccc(OS(=O)(=O)c4ccc([N+](=O)[O-])cc4)cc23)cc1OC	13.8 µM (inactive)

Now consider a different compound.
Task: // GI50 lookup, key: CCC(C)C(NC(=O)C(Cc1cccs1)NC(=O)C(CC(C)C)NC(=O)C(CC(C)C)NC(=O)C(CCCCN)NC(=O)C(CCCN=C(N)N)NC(=O)[C@H](Cc1ccc(O)cc1)NC(=O)C(NC(=O)C(C)NC(=O)C(N)CC(C)C)C(C)O)C(=O)NC(CC(C)C)C(N)=O (some centres not stated) (H-[ξL][ξA][ξT]Y[ξR][ξK][ξL][ξL][ξ2Thi][ξI][ξL]-NH2)
Result: > 50 µM (inactive)

----------
Test system: Hs-578T
Experiment: NCI tumour cell line growth inhibition, 48 h
The source made the active and inactive calls. No stated cut-off is given here; in the data, active = GI50 up to about 1.1 µM and inactive = higher.
Reported endpoint: GI50

>>> print(df.to_string())
                  compound          measurement
0  NC(N)=NCc1ccc2c(c1)OCO2  > 100 µM (inactive)

Task: // GI50 lookup, key: O=c1[nH]c2ccc(CC(=S)N3CCN(c4ccccc4)CC3)cc2o1
Result: > 54.2 µM (inactive)

Task: Check CCOC(=O)c1nnsc1NC(=O)NN too.
Result: > 100 µM (inactive)

Task: Check c1ccc2c(c1)c1c3c(c4c(n32)=NCCN4)CCC1 too.
Result: 26.5 µM (inactive)

Task: Check CCOC(=O)C1=CNC(C(=O)OCC)C1c1cccn1-c1ccc(Cl)cc1[N+](=O)[O-] (centres undefined) too.
Result: 15.8 µM (inactive)

Task: Check O=C(NC(=S)Nc1ccc([N+](=O)[O-])cc1)c1ccc2c(c1)Sc1ccccc1O2 too.
Result: 32.8 µM (inactive)

Task: Check O=C(c1ccccc1)c1sc2c(=O)c(C(=O)c3ccccc3)c(C(=O)c3ccccc3)sc2c(=O)c1C(=O)c1ccccc1 too.
Result: 77.6 µM (inactive)

Task: Check CC(C)(C)c1ccc(-c2nc3ccc([N+](=O)[O-])cc3c(=O)o2)cc1 too.
Result: 25.2 µM (inactive)

Task: Check CN1C[C@H]2[C@@H](C1=O)[C@H](c1ccc([N+](=O)[O-])cc1)ON2C too.
Result: > 100 µM (inactive)

Task: Check CCC(CON(C)c1ccccc1)(SC)SC too.
Result: 80.2 µM (inactive)

Task: Check CC(C)(N)C(=O)N[C@@H]1C(=O)N2[C@@H]1SC(C)(C)[C@@H]2C(=O)O too.
Result: > 100 µM (inactive)

Task: Check Nc1cccc2nnccc12 too.
Result: > 100 µM (inactive)

Task: Check N/N=C1/C(=N/O)CCc2nonc21 too.
Result: > 100 µM (inactive)

Task: Check CSc1ccccc1NC1=NCCO1 too.
Result: > 100 µM (inactive)

Task: Check CN(C)/C=N/c1c2ccccc2nc2ccccc12 too.
Result: 2.01 µM (inactive)

Task: Check Cc1cc(S(N)(=O)=O)c(SCc2nc(N)nc(N(C)C)n2)cc1Cl too.
Result: > 10 µM (inactive)

Task: Check OC(c1cccnc1Cl)c1nc2ccccc2c2ccnc(Cl)c12 (centres undefined) too.
Result: 2.72 µM (inactive)

Task: Check C=C(C)C(CC=C(C)C)Cc1c(O)cc(OC)c2c1OC(c1ccc(O)cc1O)C(O)C2=O (centres undefined) too.
Result: 17.2 µM (inactive)

Task: Check COc1ccc(N[S+]([O-])c2c(C)cc(C)cc2C)cc1 (centres undefined) too.
Result: 34.4 µM (inactive)
